test system: TK-10 renal; assay: NCI tumour cell line growth inhibition, 48 h
Parameter Measured: TGI

Lookup: Fill in TGI for CCCCCCCN1C(=O)C(O)(c2ccc(C3(O)C(=O)N(CCCCCCC)c4ccccc43)s2)c2ccccc21 (centres undefined) tested with TK-10 renal.
Found: 5.67 µM

Lookup: Fill in TGI for CCCCn1sc(=O)n(Cc2ccc(CNC(=O)OCc3ccc4c(Br)cc(Br)c(O)c4n3)cc2)c1=O tested with TK-10 renal.
Found: > 100 µM

Lookup: Fill in TGI for Cc1c(C)c(S(=O)(=O)N(CCCN)OCCCN)c(C)c2c1OC(C)(C)C2 tested with TK-10 renal.
Found: > 100 µM

Lookup: Fill in TGI for CCOC(=O)NC(=O)c1cn(CCN2CCN(C(=O)CCCCCCCCCCNc3ncnc4nc[nH]c34)CC2)c(=O)[nH]c1=O tested with TK-10 renal.
Found: > 100 µM

Lookup: Fill in TGI for CCOC(=O)Nc1ccc(-c2nc(-c3cccc(OC)c3)c(-c3ccnc(Br)c3)[nH]2)cc1 tested with TK-10 renal.
Found: > 100 µM

Lookup: Fill in TGI for CC1(C)CC(=O)c2c(nc(SSc3nc4c(c(-c5ccccc5)c3C#N)C(=O)CC(C)(C)C4)c(C#N)c2-c2ccccc2)C1 tested with TK-10 renal.
Found: > 10 µM

Lookup: Fill in TGI for O=C1/C(=C/c2ccccc2)CN(C(=O)OCc2ccccc2)C/C1=C\c1ccccc1 tested with TK-10 renal.
Found: > 46.2 µM

Lookup: Fill in TGI for CNCCCNc1nc2ccccc2c2c(=O)c3cc(Cl)ccc3sc12 tested with TK-10 renal.
Found: 3.48 µM

Lookup: Fill in TGI for NC(=Nc1ccc(O)cc1)S(=O)O tested with TK-10 renal.
Found: > 100 µM
